Measured values drawn from patent US9586936B2 for this set.

Target: CYP2C19 (Homo sapiens)
Sequence (P33261 whole entry): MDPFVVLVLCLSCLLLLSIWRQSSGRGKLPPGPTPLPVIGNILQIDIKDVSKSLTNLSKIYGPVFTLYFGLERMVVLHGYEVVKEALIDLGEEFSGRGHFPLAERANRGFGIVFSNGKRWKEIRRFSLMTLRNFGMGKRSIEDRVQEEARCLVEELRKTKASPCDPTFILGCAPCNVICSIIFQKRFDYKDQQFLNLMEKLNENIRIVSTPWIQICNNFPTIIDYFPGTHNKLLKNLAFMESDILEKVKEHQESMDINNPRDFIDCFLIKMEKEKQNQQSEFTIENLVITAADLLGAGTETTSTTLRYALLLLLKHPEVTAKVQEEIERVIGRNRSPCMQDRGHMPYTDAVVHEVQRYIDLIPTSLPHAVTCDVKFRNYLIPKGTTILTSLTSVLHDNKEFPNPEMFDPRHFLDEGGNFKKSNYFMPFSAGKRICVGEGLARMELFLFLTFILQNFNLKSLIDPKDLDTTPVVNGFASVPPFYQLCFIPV
Assay: inhibition activity against CYPs (cytochromes P450)
Type: in vitro ADME
Conditions: concentration 10 μM
value.type: inhibition at 10 µM (%)
Respond with the bare value in %.

[in] If you can, please state the reported inhibition at 10 µM value of CCN1CCN(c2ccc(Nc3cc(-n4c(Nc5c(Cl)c(OC)cc(OC)c5Cl)nc5ccccc54)ncn3)cc2)CC1 .
[out] 37.3

---

Test: microsomal stability
Type: in vitro ADME, Mouse
Conditions: microsomes; Mouse microsomal stability
value.type: half-life
A complete answer gives the number and then names the unit.

[in] If you can, please state the reported half-life value of CCN1CCN(c2ccc(Nc3cc(-n4c(Nc5c(Cl)c(OC)cc(OC)c5Cl)nc5ccccc54)ncn3)cc2)CC1 .
[out] 9.93 min
